Source of measurements: patent US20250368745A1

I'd appreciate it if you could supply pKd values for the items below.
Target: T1, cynomolgus IL-18BP (cynomolgus monkey)
T1 construct: also called cyno IL-18BP; cyIL-18BP
T1 chain: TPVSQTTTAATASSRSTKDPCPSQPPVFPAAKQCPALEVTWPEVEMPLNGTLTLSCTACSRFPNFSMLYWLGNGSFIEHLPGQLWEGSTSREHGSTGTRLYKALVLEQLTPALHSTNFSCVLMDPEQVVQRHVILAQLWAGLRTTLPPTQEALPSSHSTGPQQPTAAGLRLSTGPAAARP
Experiment: BLI, apparent KD
When answering, recall that pKd equals minus log10 of the concentration in mol/L, and write that number alone.

Record SA301a HC-I99H (antibody, name in Kabat numbering, V domains shown, IgG1 kappa) VH: QVQLQESGPGLVKPSQTLSLTCTVSGYSITSDYNSHWIRQPPGKGLEWIGYIHYSGSTNYNPSLKSRVTISRDTSKNQFSLKLSSVTAADTAVYYCARNYGSHYVNYFDYWGQGTLVTVSS VL: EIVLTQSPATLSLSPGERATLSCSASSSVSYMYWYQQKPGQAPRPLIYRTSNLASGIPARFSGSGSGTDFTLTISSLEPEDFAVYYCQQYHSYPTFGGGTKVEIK , field pKd: 9.08

Record SA301a HC-Y100V (antibody, V domains shown) VH: QVQLQESGPGLVKPSQTLSLTCTVSGYSITSDYNSHWIRQPPGKGLEWIGYIHYSGSTNYNPSLKSRVTISRDTSKNQFSLKLSSVTAADTAVYYCARNYGSIVVNYFDYWGQGTLVTVSS VL: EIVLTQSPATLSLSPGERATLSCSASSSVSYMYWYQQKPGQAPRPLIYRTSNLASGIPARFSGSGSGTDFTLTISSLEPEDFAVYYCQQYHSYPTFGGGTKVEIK , field pKd: 8.59

Record SA301a HC-N100bP (antibody, name in Kabat numbering, V domains shown, IgG1 kappa) VH: QVQLQESGPGLVKPSQTLSLTCTVSGYSITSDYNSHWIRQPPGKGLEWIGYIHYSGSTNYNPSLKSRVTISRDTSKNQFSLKLSSVTAADTAVYYCARNYGSIYVPYFDYWGQGTLVTVSS VL: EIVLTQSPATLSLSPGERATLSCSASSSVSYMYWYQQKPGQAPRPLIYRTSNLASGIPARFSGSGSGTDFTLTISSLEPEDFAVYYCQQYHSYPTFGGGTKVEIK , field pKd: 9.96

Record SA301a HC-Y100T (antibody, V domains shown) VH: QVQLQESGPGLVKPSQTLSLTCTVSGYSITSDYNSHWIRQPPGKGLEWIGYIHYSGSTNYNPSLKSRVTISRDTSKNQFSLKLSSVTAADTAVYYCARNYGSITVNYFDYWGQGTLVTVSS VL: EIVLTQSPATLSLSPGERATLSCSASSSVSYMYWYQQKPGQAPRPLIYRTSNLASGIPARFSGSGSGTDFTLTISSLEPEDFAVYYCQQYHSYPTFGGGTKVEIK , field pKd: 8.35

Record SA301a HC-I99Y (antibody, name in Kabat numbering, V domains shown, IgG1 kappa) VH: QVQLQESGPGLVKPSQTLSLTCTVSGYSITSDYNSHWIRQPPGKGLEWIGYIHYSGSTNYNPSLKSRVTISRDTSKNQFSLKLSSVTAADTAVYYCARNYGSYYVNYFDYWGQGTLVTVSS VL: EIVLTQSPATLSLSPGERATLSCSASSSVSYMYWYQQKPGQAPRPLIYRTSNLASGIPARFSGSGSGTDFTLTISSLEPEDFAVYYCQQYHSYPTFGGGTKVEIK , field pKd: 9.35
